Overview of recorded yeast fitness for various variants
B1: tRNA (parent)
chain: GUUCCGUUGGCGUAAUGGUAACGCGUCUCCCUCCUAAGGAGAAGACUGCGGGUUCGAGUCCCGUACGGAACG

# Variants of: B1
# assay method text: yeast fitness relative to wild type (ratio to wild type); higher = fitter; tRNA-Arg(CCU), competitive growth, 37 C, YPD
Variants at the floor of the assay were thinned out.

Worked cases, yeast fitness given:
INSERT INTO measurements (mutation_descriptor, readout_type, reported) VALUES
  ('C22A U26C U47C', 'yeast fitness', 0.541),
  ('C22A A69C', 'yeast fitness', 0.874),
  ('G23A C27G C34A A45C U64G', 'yeast fitness', '≤ 0.5'),
  ('A15G C30G A43U C62A', 'yeast fitness', 0.611),
  ('U32G A42G G58A C61U A70G', 'yeast fitness', '≤ 0.5'),
  ('A14C C22A U59C C62A', 'yeast fitness', '≤ 0.5'),
  ('U2A U3C C24G C33G C66U', 'yeast fitness', '≤ 0.5'),
  ('C22A G48A G51A', 'yeast fitness', 0.582),
  ('C24U C27A C30G', 'yeast fitness', '≤ 0.5'),
  ('A21C C27A U28A A45G A69C', 'yeast fitness', '≤ 0.5');

[in] Which measured yeast fitness value corresponds to G9A C11G C24G C27A U28C A65U ?
[out] ≤ 0.5

The measured values listed here are drawn from the RNAGym collection of RNA variant scans (doi:10.1126/science.aae0568).
